Origin of measurements: PubChem BioAssay (NCATS)

# experiment: qHTS for differential inhibitors of proliferation of Plasmodium falciparum line 7G8 (AID 1815);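 note: parasite growth measured after three days of incubation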; note: potency is the fitted concentration of half-maximal effect
# measurement.conditions: Plasmodium falciparum 7G8 proliferation inhibition; series mostly up to 28.7 µM
Results filed as inconclusive are left out. Activity calls are given as the source filed them. Calls come from the whole dose curve; as a rule, active = well fitted curve in the direction sought with a large enough effect; inconclusive = small, poorly fitted or top-dose-only effect, or another doubt; inactive = no such curve, though single readings can be large or run the other way.
quantity.name: Potency

compound	observed.measurement
Nc1ccc(N2C(=O)c3ccccc3C2=O)c(Cl)c1	inactive
NC(=O)c1ccccc1	inactive
NC1CCN(O)C1=O (stereo not drawn)	inactive
C=C1C(=O)O[C@@H]2[C@H]3O[C@]3(C)CCC=C(C)CC[C@@H]12	11.2 µM (active)
Cn1cc(C(=O)OCC2CCN(CCNS(C)(=O)=O)CC2)c2ccccc21	10 µM (active)
N#C/C(=C\c1ccc(O)c(O)c1)C(=O)NCCc1ccccc1	8.91 µM (active)
COc1ccccc1N1CCN(CCCNc2c(C)c(=O)n(C)c(=O)n2C)CC1	inactive
Cn1cc(C(F)(F)F)nc1-c1ccc(OCC(O)CNCCOc2ccc(O)c(C(N)=O)c2)cc1 (stereo not drawn)	12.6 µM (active)
Cc1cc2c(cc1Cl)N(C(=O)Nc1ccnc3ccccc13)CC2	inactive
CCN1C(=O)C=CC1=O	inactive
O=C1Nc2ccc(I)cc2/C1=C/c1cc(Br)c(O)c(Br)c1	8.91 µM (active)
N[C@@H](CS(=O)O)C(=O)O	inactive
Cn1c(=O)c2c(nc(/C=C/c3cccc(Cl)c3)n2C)n(C)c1=O	10 µM (active)
COc1ccc2c(c1)c(CC(=O)O)c(C)n2Cc1ccc(Cl)cc1	14.1 µM (active)
NC(=O)c1cc[n+](CC2=C(C(=O)O)N3C(=O)[C@@H](NC(=O)[C@@H](c4ccccc4)S(=O)(=O)[O-])[C@H]3SC2)cc1	inactive
COc1ccccc1N1CCN(CCCCN2C(=O)c3ccccc3C2=O)CC1	inactive
O=C1Cc2c([nH]c3ccc(Br)cc23)-c2ccccc2N1	8.91 µM (active)
CCCCCCN(CCCCCC)C(=O)Cc1c(-c2ccc(F)cc2)[nH]c2ccccc12	5.01 µM (active)
CC(N)(Cc1ccc(O)c(O)c1)C(=O)O (stereo not drawn)	inactive
O=C(N[C@@H](Cc1ccccc1)C(=O)CCl)OCc1ccccc1	8.91 µM (active)
C[C@H](O)C(=O)C1=Nc2c(nc(N)[nH]c2=O)NC1	inactive
N#Cc1cc2nc(O)c(O)nc2cc1[N+](=O)[O-]	inactive
Nc1ccc(-c2nc3ccc(-c4nc5ccc(N)cc5[nH]4)cc3[nH]2)cc1	0.794 µM (active)
